Ref: ChEMBL document CHEMBL1201862

Each item that follows carries a reported GI50.
- System: NCI-H226
- test.name: NCI tumour cell line growth inhibition, 48 h
Active and inactive are the calls of the source. No stated cut-off is given here; in the data, active = GI50 up to about 1.1 µM and inactive = higher.

[
  {
    "compound": "Cc1ccccc1N(C)S(=O)(=O)c1ccccc1[N+](=O)[O-]",
    "target.system": "NCI-H226",
    "GI50": "33.1 µM (inactive)"
  },
  {
    "compound": "CC(C)=CCC/C(C)=C/CC/C(C)=C/CC/C(=C/CC/C(C)=C\\CC/C(C)=C/CC/C(C)=C/CC/C(C)=C/Cc1cc(O)ccc1O)CO",
    "target.system": "NCI-H226",
    "GI50": "2.29 µM (inactive)"
  },
  {
    "compound": "C=C(C)CCOC(c1ccccc1)(c1ccccc1)c1ccccc1",
    "target.system": "NCI-H226",
    "GI50": "26.3 µM (inactive)"
  },
  {
    "compound": "COc1ccc2c(c1)CCC(CN1CCN(CCOC(c3ccc(F)cc3)c3ccc(F)cc3)CC1)=C2",
    "target.system": "NCI-H226",
    "GI50": "13 µM (inactive)"
  },
  {
    "compound": "CCCCCCC/C=C1\\CCC(CN(C)C)C1=O (stereo not given)",
    "target.system": "NCI-H226",
    "GI50": "22.4 µM (inactive)"
  }
]

Next compound, please.
Item `CC(=O)Oc1c2oc3ccc(Cl)cc3c(=O)c2c(O)c2ccsc12` has what recorded GI50?
> 100 µM (inactive)

====

- Tested on: PC-3
- test.name: NCI tumour cell line growth inhibition, 48 h
Activity calls are given as the source filed them. No stated cut-off is given here; in the data, active = GI50 up to about 1.1 µM and inactive = higher.
Each item that follows carries a reported GI50.

Use these answered entries as a reference point.
[
  {
    "compound": "COc1cccc2c1C(=O)c1c(O)c3c(c(O)c1C2=O)C[C@@](O)(C(=O)CO)C[C@@H]3OC1CC(N)CC(C)O1 (stereo partly drawn)",
    "GI50": "0.027 µM (active)"
  },
  {
    "compound": "O=c1c(-c2ccccc2F)coc2cc(F)ccc12",
    "GI50": "> 100 µM (inactive)"
  },
  {
    "compound": "Cc1cc(-n2c(/C=C/c3ccc(Cl)cc3)nc3cc(Cl)ccc3c2=O)on1",
    "GI50": "> 50 µM (inactive)"
  },
  {
    "compound": "CCNC(=O)Cc1nc2c(O)ncnc2n1C1OC(CO)C(O)C1O (stereo not drawn)",
    "GI50": "> 100 µM (inactive)"
  },
  {
    "compound": "CCCCC1Cc2cc(O)ccc2-c2nc3cc(O)ccc3n21.CCCCC1Cc2cc(O)ccc2-c2nc3ccc(O)cc3n21 (stereo not drawn)",
    "GI50": "12.6 µM (inactive)"
  }
]

Item Cc1ccccc1C1OC1C(=O)c1ccccc1N (stereo not drawn) has what recorded GI50?
46.6 µM (inactive)

Item `O=C(CSCC(=O)N/N=C/c1cccs1)N/N=C/c1cccs1` has what recorded GI50?
30.6 µM (inactive)

Item `Cc1oc(N)c(S(=O)(=O)c2cc3ccccc3[n+]([O-])c2N)c1C` has what recorded GI50?
> 100 µM (inactive)

Item Nc1nc2c(ncn2C2OC(CO)C(O)C2O)c(=O)o1 (stereo not drawn) has what recorded GI50?
> 100 µM (inactive)

Item `O=C1/C(=C\c2ccc(F)cc2)CCOc2c1ccc1ccccc21` has what recorded GI50?
33 µM (inactive)

Item `CC[C@@]1(O)C(=O)OCc2c1cc1n(c2=O)Cc2c-1nc1ccccc1c2/C=N\NC(=O)C(N)=O` has what recorded GI50?
4.36 µM (inactive)

Item `COc1ccc2nc3cc(Cl)ccc3c(NCCCNCc3cc(OC)c(OC)c(OC)c3)c2c1` has what recorded GI50?
1.4 µM (inactive)

Item `Sc1nn2c(Cc3ccccc3)nnc2s1` has what recorded GI50?
> 100 µM (inactive)

Item `O=C(NCCCNC(=O)c1ccc2cc(O)c(O)cc2c1)c1ccc2cc(O)c(O)cc2c1` has what recorded GI50?
27.4 µM (inactive)

Item `COc1cc2oc(=O)cc(C)c2c(OC)c1OC(C)=O` has what recorded GI50?
> 100 µM (inactive)

Item CCCC1CC(=O)NC(=O)C1C(=O)OC(C)(C)C (stereo not drawn) has what recorded GI50?
> 100 µM (inactive)

Item `O=S(=O)(OI(O)CC(F)(F)F)C(F)(F)F` has what recorded GI50?
> 100 µM (inactive)

Item `Cn1c(=O)n2n(c1=O)Cc1cccc3cccc(c13)C2` has what recorded GI50?
> 100 µM (inactive)

Item `C[N+](C)(N)c1nc(N)c(C#N)c(C#N)c1C#N` has what recorded GI50?
> 10 µM (inactive)

Item Fc1cccc(F)c1C1SCc2nc3cc(Cl)ccc3n21 (stereo not drawn) has what recorded GI50?
34.4 µM (inactive)

Item COc1ccc(C2Oc3c(OC)cc(CCCO)cc3C2CO)cc1OC (stereo not drawn) has what recorded GI50?
> 100 µM (inactive)

Item `Cc1ccccc1N/C(N)=N/C#N` has what recorded GI50?
> 100 µM (inactive)

Item `O=C1c2cc([N+](=O)[O-])sc2C(=O)c2cc([N+](=O)[O-])sc21` has what recorded GI50?
4.6 µM (inactive)
